- Tested on: SW-620
- Protocol Description: NCI tumour cell line growth inhibition, 48 h
Activity calls are given as the source filed them. Cut-off read from the data, not from the text of the source: active = GI50 up to about 1.1 µM and inactive = higher.
Hi! Could you answer with just one of these? active, inactive

Examples from the recorded data:
INSERT INTO measurements (compound, assigned_label) VALUES
  ('CCn1cc(C(=O)O)c(=O)c2cc(F)c(N3CCN(CN4C(=O)/C(=N\c5ncc(Cc6cc(OC)c(OC)c(OC)c6)c(N)n5)c5cc(Cl)ccc54)CC3)cc21', 'inactive'),
  ('CC[C@H]1C=CCC[C@@]2(C[C@@H]3CC[C@@H]4[C@H](C(=O)OCCCCCCCCCCCCCCCC(=O)N(CCCNC(C)=O)C[C@H](CCNC(C)=O)OC(C)=O)[C@]5(CCC[C@@H](C)O5)NC(=[N+]34)N2)O1', 'active'),
  ('COc1cc(C2SCC(=O)N2c2ccc(NC(=O)c3ccc(N4C(=O)CSC4c4cc(OC)c(OC)c(OC)c4)cc3)cc2)cc(OC)c1OC (centres undefined)', 'inactive');

Please share the test call associated with N#CC(NNC(=O)c1ccccc1O)c1ccccc1O (centres undefined) . inactive

====

- Test system: 786-0
- Protocol Description: NCI tumour cell line growth inhibition, 48 h
Active and inactive are the calls of the source. No stated cut-off is given here; in the data, active = GI50 up to about 1.1 µM and inactive = higher.
Endpoint: GI50

INSERT INTO assay_data (compound, test_value) VALUES
  ('Brc1ccc2c3c1[C@@H]1O[C@@H]1c1cccc(c1-3)[C@@H]1O[C@H]21', '16.5 µM (inactive)');

What value of GI50 has been reported for the following compound? COC1=CC2(C=CC1=O)CCNC1=C2C(=O)c2nc[nH]c2C1=O (stereo unspecified) > 100 µM (inactive)

Also, C[N+]1(C)C/C(=C/c2ccc(F)cc2)C(=O)/C(=C\c2ccc(F)cc2)C1 please. 49.4 µM (inactive)

Also COC(=O)C(Cc1nc2ccccc2nc1O)C(=O)C(=O)Nc1ccc(F)cc1 (stereo unspecified) , if possible. 25.4 µM (inactive)

Entry CNC(=O)OCc1nc(SC)n(C)c1COC(=O)NC please 139 µM (inactive)

Query c1ccc2c(c1)CCCN1CCc3ccccc3C21 (stereo unspecified) next 80.9 µM (inactive)

====

- Tested on: HCT-15
Exam item: assign Yes to entries whose GI50 is below 30 µM and No to entries at or above 30 µM. Note that a value of exactly 30 µM receives No.

Sample answers from the record:
INSERT INTO results (compound, assigned_label) VALUES
  ('O=C1c2ccccc2-c2c1c1ccccc1c(=O)n2-c1ccccc1', 'Yes'),
  ('COc1ccc(-n2/c(=N/C(=S)N(C)C)ss/c2=N\C(=S)N(C)C)cc1', 'No'),
  ('c1ccc2c(c1)C1=NCCN1c1ccccc1-2', 'Yes'),
  ('CC(C)(C)c1ccc2c(c1)S(=O)(=O)Nc1cccc(c1)NS(=O)(=O)c1cc(C(C)(C)C)ccc1OCCOCCO2', 'No'),
  ('COc1ccccc1NC(=S)Nc1cccc(C)n1', 'No');

Decide: GI50 of CC(C)(C)[Si](C)(C)OCC1OC(n2cnc3c(N)ncnc32)C2OC(=S)OC12 (configuration not stated) strictly below 30 µM? Yes

Let us now turn to C/C=C/CC(C(=O)OCC)(N(C)C(=O)OC(C)(C)C)S(=O)(=O)c1ccc(C)cc1 (configuration not stated) No

Next entry: COc1cc2nc(Nc3cccc(Br)c3)nc(Nc3cccc(Br)c3)c2cc1OC Yes

Next compound: COc1ccc(N2C(=O)/C(=C/c3ccc(N(CCC#N)CCC#N)cc3)N=C2c2ccccc2)c(OC)c1 No

Same read-out for CC(=O)NC(CCCCN(Cc1ccccc1)C(=O)N(CCCl)N=O)C(=O)NCc1ccccc1 (configuration not stated) ? No

Same read-out for NC(=O)N/N=C1\CC2C3CC4C2C4C13 (configuration not stated) ? No

Field entry: c1ccc(/C(=N\Nc2nc3ccccc3[nH]2)c2ccccn2)cc1 Yes

Now the compound O=C1CCCC(O)=C1SC1=C(O)CCCC1=O No

Please answer likewise for COc1ccc([C@H]2CC(=O)C[C@H](c3ccc(OC)cc3OC)C23C(=O)c2ccccc2C3=O)c(OC)c1 No

Now this one: O=C(O)C1C2OC(C(Br)C2Br)C1C(=O)O (configuration not stated) No

What about this compound? CN(C)CCCOC(=O)C(O)(Cc1ccccc1)C1CC1 (configuration not stated) No
